System: purified LFA (sialic acid specific slug lectin)
Assay: Inhibition of hemagglutination by purified LFA
Assay type: cell-based, Limax flavus
Conditions: read-out: Concentration giving 50% inhibition of hemagglutination; affinity purified LFA
measurement name: IC50 (µM)
Write down the numeric answer in µM and omit the unit.

Query: # query: IC50 | item CC(=O)N[C@H]1[C@H]([C@H](O)[C@H](O)CO)OC(O)(C(=O)O)C[C@@H]1O (some centres unmarked) [N--Acetylneuraminic Acid, N-acetylneuraminic acid] | system: purified LFA (sialic acid specific slug lectin)
Result: 130

Query: Now this one: O=C(CO)N[C@H]1[C@H]([C@H](O)[C@H](O)CO)OC(O)(C(=O)O)C[C@@H]1O (some centres unmarked) [N--Glycolyneuraminic Acid, N-glycolylneuraminic acid]
Result: 900

Taken from patent US4457865A.
